Provenance of the data: PubChem BioAssay (NCI)

Test system: A549 NSCLC
Assay: NCI tumour cell line growth inhibition, 48 h

{"columns": ["compound", "TGI"],
 "data": [
  ["COc1cc2c(cc1O)C1CC(CC3CCCCN31)OC(=O)/C=C\\c1ccc(O)c-2c1 (stereo unspecified)", "> 100 µM"],
  ["Fc1ccc(-c2c(-c3ccncc3)[nH]c3nccnc23)cc1", "> 25 µM"],
  ["O=C1OC2(OC2c2ccc(Cl)cc2)c2ccccc21 (stereo unspecified)", "> 100 µM"],
  ["C=C1CC(C)(COc2ccc3c(C)cc(=O)oc3c2)OC1=O (stereo unspecified)", "23.8 µM"],
  ["NCC1(N2CCOCC2)C2CCCC21CNc1ccccc1 (stereo unspecified)", "> 100 µM"],
  ["COC(=O)C1=C(\\O)C[C@@]2(C)CC[C@@H](C(=O)OC)C2C/C=C\\1C(=O)OC (stereo partly specified)", "> 100 µM"],
  ["COC(=O)/C=C(\\C)CC/C=C(\\C)CCC(O)C(C)(C)O (stereo unspecified)", "> 100 µM"],
  ["COc1c(C)c(O)c2c(c1C)OC(c1ccccc1)CC2=O (stereo unspecified)", "> 100 µM"],
  ["Cn1cnc([N+](=O)[O-])c1Sc1nc2ccc([N+](=O)[O-])cc2[nH]1", "> 100 µM"],
  ["N[C@@H](CSSC[C@H](N)C(=O)N1CCn2cc(-c3ccccc3)nc2[C@@H]1CC1CCCCC1)C(=O)N1CCn2cc(-c3ccccc3)nc2[C@@H]1CC1CCCCC1", "3.05 µM"],
  ["C[N+]1(C)C[C@@H](O)C[C@@H]1C(=O)[O-]", "> 100 µM"]
]}

----------
Property: TGI; scope: individual molecules
Test system: M19-MEL melanoma
Assay: NCI tumour cell line growth inhibition, 48 h

{"columns": ["molecule", "TGI"],
 "data": [
  ["CCOC(=O)c1c2ccc(/C=C/c3ccccc3)ccc-2c(C(=O)OCC)c1N", "> 100 µM"],
  ["COC(=O)/C(=N/NC(C)(C)C)C(C(=O)OC)C(=O)C(=O)Nc1nc2ccc([N+](=O)[O-])cc2s1 (stereo unspecified)", "> 100 µM"],
  ["Cc1nc2ccc(N)cc2[nH]c1=O", "> 100 µM"],
  ["CCOC(=O)CC(NCc1ccc(N=Cc2nc3ccc(C(F)(F)F)cc3nc2-c2ccccc2)cc1)C(=O)OCC (stereo unspecified)", "> 100 µM"],
  ["NC(=O)c1cc([N+](=O)[O-])cc([N+](=O)[O-])c1", "46.8 µM"],
  ["CN1CCc2cc3c4cc2C1Cc1ccc(cc1)Oc1cc(ccc1O)CC1c2c(cc(O)c(c2O4)O3)CCN1C (stereo unspecified)", "3.35 µM"],
  ["Cc1ccc(N=NC(C2=NC(=O)CS2)c2nc3ccccc3[nH]2)cc1 (stereo unspecified)", "> 100 µM"],
  ["N#Cc1cn(-c2c3ccccc3nc3ccccc23)c(=O)[nH]c1=O", "46.1 µM"],
  ["COc1ccc(/C=C2\\CCC(Cc3ccccc3)(CN(C)C)C2=O)cc1 (stereo unspecified)", "70.7 µM"],
  ["COc1c(C)c(O)c2c(c1C)OC(c1ccccc1)CC2=O (stereo unspecified)", "> 100 µM"],
  ["N#CC1C(=O)NC(=O)C1=O (stereo unspecified)", "> 100 µM"]
]}

----------
System: HL-60(TB) leukemia
Assay: NCI tumour cell line growth inhibition, 48 h
readoutKind: TGI

{"columns": ["compound", "reportedValue"],
 "data": [
  ["NC(=O)c1ncn(Cc2ccccc2)c1CNC(N)=S", "> 100 µM"],
  ["Cc1cc2cc3ccccc3cc2c(=O)[nH]1", "> 10 µM"],
  ["COC(=O)C1=C(\\O)C[C@@]2(C)CC[C@@H](C(=O)OC)C2C/C=C\\1C(=O)OC (stereo not given in full)", "> 100 µM"],
  ["C[N+](C)(C)CCN[N+]1(C)CCCc2ccccc21 (stereo not given)", "> 100 µM"],
  ["O=C1OCCC[C@H]2O[C@@H](COCc3ccccc3)C[C@@H]12", "> 100 µM"]
]}

----------
Tested on: OVCAR-5 ovarian
Experiment: NCI tumour cell line growth inhibition, 48 h
Property: TGI; scope: individual compounds

{"columns": ["compound", "TGI"],
 "data": [
  ["CCCCC(C(=O)CCC(=O)Nc1ccc(Cl)cc1)C(=O)C(C)C (stereo not given)", "> 100 µM"],
  ["CCOC(=O)C(NC(=O)c1ccccc1)(Nc1ccc(S(=O)(=O)Nc2cc(C)nc(C)n2)cc1)C(F)(F)F (stereo not given)", "> 100 µM"],
  ["C#CC(O)/C=C/C(O)CCCC(O)CC#CC(O)C#CC(O)CCCC(O)/C=C/CCCCCC(=O)CCCCCCCCCCCCCC(O)C(O)C#CC(=O)O (stereo not given)", "> 50 µM"],
  ["CCOC(=O)Nc1cc2c(c(N)n1)N=C(c1ccc3ccccc3c1)CN2", "> 56.8 µM"],
  ["COc1cc(NC(C)CCCN2C(=O)c3ccccc3C2=O)c2ncccc2c1OC (stereo not given)", "> 100 µM"],
  ["c1ccc([P+](c2ccccc2)(c2ccccc2)c2ccc(-c3ccc([P+](c4ccccc4)(c4ccccc4)c4ccccc4)cc3)cc2)cc1", "> 100 µM"],
  ["Cc1ccc(N=NC(C2=NC(=O)CS2)c2nc3ccccc3[nH]2)cc1 (stereo not given)", "> 100 µM"],
  ["O=c1[nH]c(SCc2ccccc2[N+](=O)[O-])nc2nc[nH]c12", "> 100 µM"],
  ["O=c1c2cc(S(=O)(=O)Nc3ccc(Cl)cc3Cl)ccc2ncn1NS(=O)(=O)c1cccc2ccccc12", "> 100 µM"],
  ["COc1ccc(/C=C2\\N=C(c3ccccc3)OC2=O)cc1OC(C)=O", "> 100 µM"]
]}

----------
Property: TGI; scope: individual compounds
Test system: PC-3 prostate
Assay: NCI tumour cell line growth inhibition, 48 h

{"columns": ["compound", "TGI"],
 "data": [
  ["CN(C)c1ccc(/C=c2/c3ccccc3n3c2cc(NC(=O)NCCC[N+](C)(C)C)[n+]3C)cc1", "> 100 µM"],
  ["CCN1C(=O)N(CC)C2C1NN=c1s/c(=C\\c3ccc(OC)cc3)c(=O)n12 (stereo unspecified)", "> 100 µM"],
  ["CCCCCC1=C2C(c3ccc(OC)cc3)=C(N)C(c3ccc(OC)cc3)=C3NC(=O)C(C=C1)C32 (stereo unspecified)", "> 100 µM"],
  ["c1ccc2c3nnc(c2c1)SCCCSc1nnc(c2ccccc12)SCCCS3", "> 100 µM"],
  ["N#Cc1c(N)c(C#N)c2c(c1-c1ccc(Cl)cc1)COc1ccc(F)cc1-2", "> 50 µM"],
  ["CC(=O)Oc1ccc(/C=C/C(=O)OCCOC(=O)/C=C/c2ccc(OC(C)=O)c(OC(C)=O)c2)cc1OC(C)=O", "58.8 µM"],
  ["COc1c2ccccc2c(O)c2c(=O)ccn(C)c12", "57.6 µM"],
  ["Cc1cc2c(cc1Cl)SC(C(=O)c1ccc(Cl)c(Cl)c1)NS2(=O)=O (stereo unspecified)", "> 100 µM"],
  ["N=c1oc2ccccc2cc1C(=O)Nc1nccs1", "> 100 µM"],
  ["COc1cc(/C=C/c2cc(O)c(C/C=C(\\C)CC/C=C(\\C)CO)c(O)c2)cc2c1O[C@]1(C)CC[C@@H](O)C(C)(C)[C@H]1C2", "> 100 µM"],
  ["NNc1ncc2c(n1)-c1ccccc1OC2", "> 100 µM"],
  ["COc1ccc(/C=C2\\N=C(c3ccccc3)OC2=O)cc1OC(C)=O", "> 100 µM"],
  ["C[N+](C)(C)CCOP(=O)([O-])OCCNC(=O)c1ccc2ccccc2c1", "> 100 µM"],
  ["c1c2c(cc3c1OCO3)-c1cc3ccc4c(c3c[n+]1CC2)OCO4", "> 12.5 µM"],
  ["N=C1C(c2nc3ccccc3s2)=C(O)CN1c1cc(Cl)cc(Cl)c1", "> 100 µM"],
  ["COC(=O)c1ccccc1C1=C([N+](=O)[O-])C(c2cccc(Br)c2)C(C#N)=C(N)O1 (stereo unspecified)", "> 100 µM"],
  ["Cc1cc2c(cc1Cl)N1C(=O)NS(=O)(=O)N=C1NS2(=O)=O", "> 100 µM"],
  ["O=c1[nH]c(SCc2ccccc2[N+](=O)[O-])nc2nc[nH]c12", "> 100 µM"],
  ["CCOC(=O)Nc1cc2c(c(N)n1)N=C(c1ccc3ccccc3c1)CN2", "24.7 µM"],
  ["O=C(NCCCNCCCCNCCCNC(=O)c1cc(-c2ccccc2)nc2ccccc12)c1cc(-c2ccccc2)nc2ccccc12", "4.33 µM"],
  ["O=C1C(Br)=CC2(C=C1Br)CCNc1c(O)c3c4c(c12)=NCCC=4C=N3", "0.993 µM"]
]}
